# gcPBM binding intensity (ln) listing for each entry below
# System: PfAP2-HC AP2 domain (GST-tagged)
# Procedure Summary: gcPBM binding intensity (ln(normalized median fluorescence intensity)); higher = stronger DNA binding
The full ranking holds about 25,000 sequences; the median of “ln(normalized median fluorescence intensity)” is about 9.7, and the highest 2% start at about 11. The sample as a whole holds a higher share of the highest values than the screen did.
Measured Property: gcPBM binding intensity (ln)

Seq: TATATATTAAAAATAGTGCAAAATAATATATATATA [GTGCAC_site9716]
Value: 9.82
--
Seq: TTAAAAAATCACAACACACACACACGCAAAAAAAAA [CACACA_site6793]
Value: 10.8
--
Seq: TTTTTTAAAAAAGTTTTCTGTATTTATATATATATA [CACACA_negctrl_site31]
Value: 9.48
--
Seq: CACCCACCCAGACACACACACACAAAAAAAAAAAGA [CACACA_site499]
Value: 11.2
--
Seq: CACACGCACGAACACACACACACACGCACGCACATA [CACACA_site6305]
Value: 10.7
--
Seq: AACAAATACGAACACACACACACACTAAAAAAAAAA [CACACA_site6386]
Value: 10.8
--
Seq: CAAGCACCCAGACACACACACACACCCACACCCACA [CACACA_site369]
Value: 11.2
--
Seq: CACAGACACGGACACACACACATATATAATATATAT [CACACA_site4495]
Value: 10.8
--
Seq: CACAGACACGGACACACACACACACCCACATATATA [CACACA_site4355]
Value: 11.5

====

# Test system: PfAP2-HC AP2 domain (GST-tagged)
# Procedure Summary: gcPBM binding intensity (ln(normalized median fluorescence intensity)); higher = stronger DNA binding
In all, about 25,000 sequences were measured (“ln(normalized median fluorescence intensity)”: median about 9.7, highest 2% from about 11 on). For the sample, the highest values were picked, then their nearest neighbours and some sequences at random.

Seq: TAACATATCTTTAATACACACTTAAAAAAGTACTTA [CACACA_site4532]
Measurement Target: PfAP2-HC AP2 domain (GST-tagged)
gcPBM binding intensity (ln): 9.41
//
Seq: TATATAAACACGTACACACACATATCTGTATTTATA [CACACA_site5858]
Measurement Target: PfAP2-HC AP2 domain (GST-tagged)
gcPBM binding intensity (ln): 10.4
//
Seq: AAAAAAAAAAAAGAAACACACACATATATATATATA [CACACA_site8525]
Measurement Target: PfAP2-HC AP2 domain (GST-tagged)
gcPBM binding intensity (ln): 10.7
//
Seq: TATAATAATACTTATTGTACGATTAGCTTAATTCGT [XGTACX_site15]
Measurement Target: PfAP2-HC AP2 domain (GST-tagged)
gcPBM binding intensity (ln): 9.51
//
Seq: CATATAAATAAACACACACACACATATATATATATA [CACACA_site5309]
Measurement Target: PfAP2-HC AP2 domain (GST-tagged)
gcPBM binding intensity (ln): 10.5
//
Seq: ATCTTTTATATATTCACACATAAAATTATACAGATA [CACACA_site5277]
Measurement Target: PfAP2-HC AP2 domain (GST-tagged)
gcPBM binding intensity (ln): 9.46
//
Seq: AAAAAAAAAAAAGAAACACACATATATATATATATA [CACACA_site140]
Measurement Target: PfAP2-HC AP2 domain (GST-tagged)
gcPBM binding intensity (ln): 9.68
//
Seq: TATATATAGAAACACACACACACATATATATATATT [CACACA_site2539]
Measurement Target: PfAP2-HC AP2 domain (GST-tagged)
gcPBM binding intensity (ln): 11.3
//
Seq: ATGAATTTTTCTCTACAAAAGGATATAATAAAAATA [XGTACX_negctrl_site461]
Measurement Target: PfAP2-HC AP2 domain (GST-tagged)
gcPBM binding intensity (ln): 9.37
//
Seq: ATAAATATGGAGCACACACACATAAACATACATATA [CACACA_site421]
Measurement Target: PfAP2-HC AP2 domain (GST-tagged)
gcPBM binding intensity (ln): 11.1
//
Seq: AAAAGGAACAGACACACACACATATATAAATATGTA [CACACA_site7656]
Measurement Target: PfAP2-HC AP2 domain (GST-tagged)
gcPBM binding intensity (ln): 10.5
//
Seq: AAAAAAAAAAGAAACACACACATATATATATAGAAT [CACACA_site1777]
Measurement Target: PfAP2-HC AP2 domain (GST-tagged)
gcPBM binding intensity (ln): 10.3
//
Seq: TACCCACGTATATATATACACACTAATATACACCCA [CACACA_site9381]
Measurement Target: PfAP2-HC AP2 domain (GST-tagged)
gcPBM binding intensity (ln): 9.88
//
Seq: ATATTACACATATATGCACACATTGTAGTTATTTAT [CACACA_site8843]
Measurement Target: PfAP2-HC AP2 domain (GST-tagged)
gcPBM binding intensity (ln): 9.99
//
Seq: TCACAAATGTATTATACACACAAGTTTTCTTTAATA [CACACA_site4107]
Measurement Target: PfAP2-HC AP2 domain (GST-tagged)
gcPBM binding intensity (ln): 9.71
//
Seq: CCAACATGCCCACGCACACACAAAAAAAGCATGCAT [CACACA_site4217]
Measurement Target: PfAP2-HC AP2 domain (GST-tagged)
gcPBM binding intensity (ln): 10
//
Seq: TATATATATATATAAACACACATAAATATAAATATA [CACACA_site1121]
Measurement Target: PfAP2-HC AP2 domain (GST-tagged)
gcPBM binding intensity (ln): 9.88
//
Seq: ATCAAGCACGAACACACACACACACGCACGCCCACA [CACACA_site6308]
Measurement Target: PfAP2-HC AP2 domain (GST-tagged)
gcPBM binding intensity (ln): 11.4
//
Seq: AAGTTAGTATTCTGCTGTACTTCTATATATAAGTGT [XGTACX_site7678]
Measurement Target: PfAP2-HC AP2 domain (GST-tagged)
gcPBM binding intensity (ln): 9.61
//
Seq: GCTTTTGTCATGTGCACACACGTATATATTATATAT [CACACA_site6146]
Measurement Target: PfAP2-HC AP2 domain (GST-tagged)
gcPBM binding intensity (ln): 10.9
//
Seq: TTTTTTTCTTTATTAGCACACATAATATTATATATG [CACACA_site8841]
Measurement Target: PfAP2-HC AP2 domain (GST-tagged)
gcPBM binding intensity (ln): 9.79
//
Seq: ATATATATTTATAATCGTACGTACCTAACAATACAA [XGTACX_site4510]
Measurement Target: PfAP2-HC AP2 domain (GST-tagged)
gcPBM binding intensity (ln): 9.62
//
Seq: TTTTTAGAAAGACATGCATGTAATAAAAATAAATAA [TGCATGCA_site685]
Measurement Target: PfAP2-HC AP2 domain (GST-tagged)
gcPBM binding intensity (ln): 9.82
//
Seq: TCAACAAATAAACTTTGTACATATATACAAAATATA [XGTACX_site4447]
Measurement Target: PfAP2-HC AP2 domain (GST-tagged)
gcPBM binding intensity (ln): 9.53
//
Seq: TAAATCCGTTTGATGGGTACATACATACATACATAT [XGTACX_site8889]
Measurement Target: PfAP2-HC AP2 domain (GST-tagged)
gcPBM binding intensity (ln): 9.73
//
Seq: TATATATAGAAACACACACACATATATATATATATT [CACACA_site4115]
Measurement Target: PfAP2-HC AP2 domain (GST-tagged)
gcPBM binding intensity (ln): 10.5
//
Seq: TATTTTTTGAAAAGTTCACACATCCAACTCGAGTTG [CACACA_site4412]
Measurement Target: PfAP2-HC AP2 domain (GST-tagged)
gcPBM binding intensity (ln): 9.62
//
Seq: AAAAAAAAAAGAAACACACACATATAGATTTATAAC [CACACA_site6927]
Measurement Target: PfAP2-HC AP2 domain (GST-tagged)
gcPBM binding intensity (ln): 10.9
//
Seq: TTATTTATTCTATGTGCATGTTATTTTTTTTTTTCG [TGCATGCA_site262]
Measurement Target: PfAP2-HC AP2 domain (GST-tagged)
gcPBM binding intensity (ln): 9.73
//
Seq: TATATATAGAAACACACACACACATATATATATATA [CACACA_site4116]
Measurement Target: PfAP2-HC AP2 domain (GST-tagged)
gcPBM binding intensity (ln): 10.3
//
Seq: TTTTTTTAAAACAAAAAAAAAAAAAAAAAAAAAAAA [TGCATGCA_negctrl_site418]
Measurement Target: PfAP2-HC AP2 domain (GST-tagged)
gcPBM binding intensity (ln): 8.22
//
Seq: CATATACACGAACACACACACACACGCACAAAAAAA [CACACA_site6376]
Measurement Target: PfAP2-HC AP2 domain (GST-tagged)
gcPBM binding intensity (ln): 10.6
//
Seq: AAAAAAAAAAAAAAAACACACATATAGATTTATATA [CACACA_site7196]
Measurement Target: PfAP2-HC AP2 domain (GST-tagged)
gcPBM binding intensity (ln): 9.88
//
Seq: TTAAAATTTTTCAAAAGTACATAAATAATATATATT [XGTACX_site4694]
Measurement Target: PfAP2-HC AP2 domain (GST-tagged)
gcPBM binding intensity (ln): 9.32
//
Seq: TTTTGTTTATGTGTGCATTATATTATATTTTTTATT [TGCATGCA_negctrl_site146]
Measurement Target: PfAP2-HC AP2 domain (GST-tagged)
gcPBM binding intensity (ln): 10.1
//
Seq: TGCATATGCATTATTTGTACATATGTAGATAATTAT [XGTACX_site6930]
Measurement Target: PfAP2-HC AP2 domain (GST-tagged)
gcPBM binding intensity (ln): 9.63
//
Seq: CACACGCACGGACACACACACATATAAAATCTATAT [CACACA_site6428]
Measurement Target: PfAP2-HC AP2 domain (GST-tagged)
gcPBM binding intensity (ln): 11.1
//
Seq: AAAAAAAATATCTATGCATGTAATATTATGATATTG [TGCATGCA_site546]
Measurement Target: PfAP2-HC AP2 domain (GST-tagged)
gcPBM binding intensity (ln): 9.58
